So I've got a bunch of sequences here, and I need their apparent KD of MS2 coat protein values.
# Test system: MS2 coat protein
# Assay info: apparent KD of MS2 coat protein; higher = weaker reporter binding
# Condition context: Eterna round: R107; input ligand: tryptophan 2.4 mM
Numbers only, in nM.

ACGAUGCGACAUGAGGAUCACCCAUGUGAUACCAGCCUGGAAACAGGCCCUUGGCAGCACAAAUACUCCAGAAACGCAUCGAAUA [MAT - Exclusion Theophlline A - Mod of Eli - D3] ... 348
UUAUUUAACGGAAGGAGCGCGGAAAUUAAGGUGGGUAAACAUGAGGAUCACCCAUGUAAUCCGCAGGUAGGUCGCCGAUAUUUAU [#24 Exclusion - Arginine B] ... 112
GACCGAUUAUAGUGCGAUUCUCUUGUGGAAGGAGCGCAGAGGACUGCAGGUAGGUCGCCACAUGAGGAUCACCCAUGUCAGGAUA [Esxebiat] ... 10.6
GUUGGUUUGCGAAGGAGCGGGUAUGUUGUCUACUUGAUCCUAACAUGAGGAUCACCCAUGUCCCAGGUAGGUCGCGCGGGCUUUG [12.aC] ... 46.8
AUUAAUUUAUUUCUCAAUUUAAUUUCAGAAGGAGCGUGAUGUUUCACAGGUAGGUCGCUGUUUACAUGAGGAUCACCCAUGUUUU [JR_SSArginiA_Sub004] ... 31.8

For each listed entry, give its apparent KD of MS2 coat protein.
1. AGACAUGAGGAUCACCCAUGUAGCAUGGAUACCAGAUGUAGAUUAGUCCCUUGGCAGCUGUGGUAAAGUGAUGCAUUGCUCCUAG [Exclusion - Theophylline A (Freestyle 3)]
2. CAUGAUAAGUUGGAUACCAGCAUAUGGAACAACAUGAGGAUCACCCAUGUCAAAUGACAUUGCCCUUGGCAGCCACCUACUGUCA [theeternabot_sameState_MS2_Theo_B_5]
3. ACAUGAGGAUCACCCAUGUGGCGACUUGAUACCAGACCCGCACUAGUCCCUUGGCAGCAACUACGUGAGGGACACCCAUGUGAAG
4. AGGUGGGUCUGAAGGAGCGCGAUAACAUGAGGAUCACCCAUGUUAAAUGGUACAUGAUACUCGCAGGUAGGUCGCAGUAAAACCA [Same State Arginine B GF 12]

OUT:
1. 38.8
2. 17.9
3. 21.6
4. 53.1

---

# Test system: MS2 coat protein
# Assay info: apparent KD of MS2 coat protein; designed switch direction (-1 OFF switch, 1 ON switch): -1; higher = weaker reporter binding
# Condition context: input ligand: microRNA oligo, concentration not stated
Quantity: apparent KD of MS2 coat protein (nM)
Give bare numbers, in nM.

For each listed entry, give its apparent KD of MS2 coat protein.
1. AUUAAACAUGUAGGAUAUGCGUGGCGAAGCUAUGCAGAAGGACAUGAGGAUCACCCAUGUAAAAGCGUCUGCGUACAGAUGCAA [Mat - Exclusion NG 1 - Mod of JL - D84] (Eterna round: R96, puzzle: Exclusion NG 1)
2. CCGCUCCGUGUAGGAUAUCGGCGUACCCUGCGCCGAGAAGGACAUGAGGAUCACCCAUGUAUGUUAUUAUCACGCGUGGCGCAC [Design 74] (Eterna round: R96, puzzle: Exclusion NG 1)

OUT:
1: 28; 2: 14.6

IN: Suppose we examine the sequence GCACGAAGUGGAGGAUAUCUGGGCGAGGAGCGCAGAGAAGGCCACAUGAGGAUCACCCAUGUGUUCCACGGAUCGCAAACGUGC [exng1 ex2] (Eterna round: R96, puzzle: Exclusion NG 1) ; what apparent KD of MS2 coat protein value has been reported?
OUT: 14.4
